B1: Calcium-binding protein 2, residues 155 to 219; numbered along this chain, Q9NPB3 (parent)
chain: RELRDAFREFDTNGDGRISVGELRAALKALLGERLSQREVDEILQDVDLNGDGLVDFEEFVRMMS

variants of: B1; assay: abundance fitness (aPCA) (normalised: wild type 0, dead -1); higher = more abundant; growth selection in yeast, the domain comes from the species named; conditions: Homo sapiens
quantity_name: abundance fitness
Reply briefly: the number, and no unit.

What value of abundance fitness has been reported for the following variant? A6G
-0.328

What value of abundance fitness has been reported for the following variant? G53H
0.011

What value of abundance fitness has been reported for the following variant? Q45D
-0.144

What value of abundance fitness has been reported for the following variant? R62Y
-0.2
